B1: C10orf62 (parent)
chain: GHSHHSHHGHPSHQSHSLPNRRH

- Variants of: B1
- protocol-notes: protein stability index of a GFP-peptide fusion (GPS, HEK-293T) (PSI 1-6); higher = more stable;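 further: lentivirally expressed fusions sorted by FACS into six bins by GFP to DsRed ratio, PSI derived from sequencing read proportions per bin multiplied by bin number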
- test-conditions: c terminus: native
assay-readout: protein stability index

N20A    2.97
H5A    2.92
R22G    2.15
N20Q    1.94
S12I    4.18
R22F    2.84
H8R    2.72
P11R    3.75
L18F    3.24
L18R    4.23
S17Y    4.98
H10M    2.98
S12E    3
S3V    3.19
S15R    3.2
H23L    3.52
P11Q    3.94
S3N    2.89
S6W    4
R22H    4.93
H16P    2.52
G1I    3.33
H2N    3.26
H13Y    3.26
S15K    3.18
Q14N    2.92
H7G    1.83
S3K    2.75
G1H    2.43
N20D    3.58
H23R    4.71
N20G    4.22
S17C    2.65
H4D    2.31
H2D    2.97
L18M    2.16
L18W    3.46
H2F    3.23
P11G    3.85
Q14S    2.26
H23Y    3.4
Q14I    2.95
S15P    3.1
S3A    3.05
S6V    2.71
R21P    2.05
P11E    2.1
H16A    2.55
R22P    3.56
G9C    4.56
G1S    2.81
Q14G    2.82
P11M    1.92
H8C    4
Q14H    3.42
H5G    2.33
S6I    2.27
G1W    3.55
P19N    2.4
H13L    3.34
H8G    2.46
Q14E    2
H10P    2.43
H2G    2.22
S17A    2.08
R22K    4
G1P    3.63
N20P    2.07
P19Q    2.38
S3D    2.29
Q14V    2.08
H7L    3.37
S17I    2.64
G1A    4.7
L18E    3.19
